Where do these numbers come from? They come from PubChem BioAssay AID463203.

Target: Glycogen synthase kinase-3 alpha (Homo sapiens)
Assay: concentration-response blocking of human GSK3A – biochemical, luminescence, cell-free homogeneous, retest, dose response (AID 463203)
Conditions: GSK-3 alpha enzyme, ADP-Glo luminescence, 60 min
Calls of active or inactive are those of the source.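 How the source made its calls: active means more than half of replicate measurements showing over 20% loss of kinase signal relative to plate controls; inconclusive means some but at most half of replicates over 20% loss; inactive means no replicate over 20% signal loss.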
One label from this list, please: True for active, False for inactive

These solved cases illustrate the format of a correct answer.
Molecule: COc1ccc(CCNC2=C(Cl)C(=O)N(Cc3ccccc3)C2=O)cc1OC
Category: False
//
Molecule: Cn1cnnc1SCC(=O)Nc1ncc([N+](=O)[O-])s1
Category: False
//
Molecule: Cc1ccc(N2C(S)=C(C#N)C(=O)NC2c2ccco2)cc1 (configuration not stated)
Category: False
//
Molecule: Clc1ccc(Nc2ncn[nH]2)cc1
Category: False
//
Molecule: CC(/C=N/NC(=O)CSc1nc2ccccc2n1C)=C\c1ccco1
Category: False
//
Molecule: Cc1cc(NC(=O)c2sc(Nc3ccc(F)cc3)nc2N)no1
Category: True

Could you kindly confirm the outcome this assay logged for Oc1ccc(-c2nnc(-c3ccc(O)cc3)nn2)cc1 ? False
